biological target: bovine serum albumin (BSA) (Bos taurus, UniProt P02769); construct: purchased Merck (Darmstadt, Germany); assay: Surface plasmon resonance (SPR) analysis of albumin–morin interaction; type: binding
Sequence (P02769 25-607): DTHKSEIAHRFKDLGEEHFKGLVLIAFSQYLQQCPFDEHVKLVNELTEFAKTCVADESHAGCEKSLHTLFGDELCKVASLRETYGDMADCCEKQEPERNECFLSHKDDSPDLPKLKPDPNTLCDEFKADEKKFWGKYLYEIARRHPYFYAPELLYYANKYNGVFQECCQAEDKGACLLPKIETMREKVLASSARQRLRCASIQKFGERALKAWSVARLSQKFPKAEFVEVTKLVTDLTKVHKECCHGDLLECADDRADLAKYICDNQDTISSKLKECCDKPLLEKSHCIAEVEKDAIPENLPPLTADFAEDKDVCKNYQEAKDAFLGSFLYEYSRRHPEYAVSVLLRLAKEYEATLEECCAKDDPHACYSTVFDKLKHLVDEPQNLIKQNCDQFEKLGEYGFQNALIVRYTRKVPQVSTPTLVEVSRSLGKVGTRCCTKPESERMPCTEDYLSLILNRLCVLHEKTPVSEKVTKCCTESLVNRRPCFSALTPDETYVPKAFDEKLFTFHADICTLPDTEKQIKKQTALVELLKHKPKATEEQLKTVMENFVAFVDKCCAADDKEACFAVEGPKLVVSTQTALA
Observation type: Kd (µM)
Record the value in µM, omitting the unit from your answer.

Challenge: Fill in reported Kd for this entry: O=c1c(O)c(-c2ccc(O)cc2O)oc2cc(O)cc(O)c12 [morin, 3,5,7,2′,4′-pentahydroxyflavone]
Response given: 285

Source of measurements: paper PMC12291850
